Test system: P388 leukemia ip, CD2F1 mice, survival T/C
Method summary: NCI In Vivo Anticancer Drug Screen. Data for tumor model P388 Leukemia (intraperitoneal) in CD2F1 (CDF1) mice
Condition summary: endpoint: median survival time; dose: 120.0 mg/kg/injection; schedule: Q01DX005 (ip); vehicle: saline with Tween-80; higher = longer survival
Toxic doses and inconclusive results are not listed.
# T/C annotations

# annotated cases, reported T/C shown
// T/C lookup, key: OC(/C=C/c1ccccc1)Cc1nc2ccccc2[nH]1 (centres undefined) 88 % of control

// T/C lookup, key: O=C(Cc1nc2ccccc2[nH]c1=O)c1cccnc1 94 % of control

// T/C lookup, key: Nc1nc2ncn(COC(CO)CO)c2c(=O)[nH]1 98 % of control

// T/C lookup, key: Cc1oc2ccccc2c(=O)c1Cn1nnc2ccccc21 103 % of control

// T/C lookup, key: C=C1C[C@H](O)[C@H]2C(C[Se]c3ccccc3)C(=O)O[C@@H]2[C@H]2[C@H](C)C(O)C[C@@H]12 (some centres undefined) 95 % of control

// T/C lookup, key: COc1ccccc1NC(=O)CC(=O)N1N=C(C)C(N=Nc2cccc(C(=O)O)c2)C1=O (centres undefined) 98 % of control

// T/C lookup, key: O=C(NC(CC1CCC2OCOC2C1)C(=O)O)c1ccccc1 (centres undefined) 102 % of control

// T/C lookup, key: O=C(O)CC(Sc1ccc(Cl)cc1)C(=O)Nc1ccccc1 (centres undefined) 95 % of control

Kindly consider the entry below.
// T/C lookup, key: COc1cc(Br)c(CC(NC=O)c2ccc(OC)c(OC)c2OC)cc1OC (centres undefined) 100 % of control

// provenance: PubChem BioAssay AID330
